Assay: Drug excretion in Wistar rat feces at 4 mg/kg, iv measured after 36 hrs
Format: ADME, organism-based
Conditions: faeces, read-out: Drug excretion
reported property: dose excreted at 36 h (%)

smiles_str=[2H]/C(c1nc[nH]c1C(C)(C)C)=c1/[nH]c(=O)/c(=C/c2ccccc2)[nH]c1=O value_measured=5.85

====

Test: Half life in Wistar rat at 4 mg/kg, iv
Format: ADME, organism-based
Conditions: in vivo
reported property: half-life (h)

smiles_str=[2H]/C(c1nc[nH]c1C(C)(C)C)=c1/[nH]c(=O)/c(=C/c2ccccc2)[nH]c1=O unit_abbreviation=h value_measured=2.27

====

Experiment: Drug excretion in Wistar rat feces at 4 mg/kg, iv measured after 108 hrs
Assay type: ADME, organism-based
Conditions: faeces, read-out: Drug excretion
reported property: dose excreted at 108 h (%)

smiles_str=[2H]/C(c1nc[nH]c1C(C)(C)C)=c1/[nH]c(=O)/c(=C/c2ccccc2)[nH]c1=O reported_property="dose excreted at 108 h" unit_abbreviation=% value_measured=6.83

====

Assay: MRTlast in Wistar rat at 4 mg/kg, iv
Format: ADME, organism-based
Conditions: in vivo
reported property: MRT last (h)

smiles_str=[2H]/C(c1nc[nH]c1C(C)(C)C)=c1/[nH]c(=O)/c(=C/c2ccccc2)[nH]c1=O value_measured=1.76

====

Experiment: Drug excretion in Wistar rat urine at 4 mg/kg, iv measured after 8 hrs
Type: ADME, organism-based
Settings: read-out: Drug excretion
reported property: dose excreted at 8 h (%)

smiles_str=[2H]/C(c1nc[nH]c1C(C)(C)C)=c1/[nH]c(=O)/c(=C/c2ccccc2)[nH]c1=O unit_abbreviation=% value_measured=0.13

====

Test: Drug excretion in Wistar rat feces at 4 mg/kg, iv measured after 12 hrs
Assay type: ADME, organism-based
Conditions: faeces, read-out: Drug excretion
reported property: dose excreted at 12 h

smiles_str=[2H]/C(c1nc[nH]c1C(C)(C)C)=c1/[nH]c(=O)/c(=C/c2ccccc2)[nH]c1=O value_measured=0.12%

====

Test: Drug excretion in Wistar rat feces at 4 mg/kg, iv measured after 72 hrs
Type: ADME, organism-based
Conditions: faeces, read-out: Drug excretion
reported property: dose excreted at 72 h

smiles_str=[2H]/C(c1nc[nH]c1C(C)(C)C)=c1/[nH]c(=O)/c(=C/c2ccccc2)[nH]c1=O value_measured=6.23%

====

In this section we review reported fraction unbound at 4 h, 2 µM values for a set of compounds.
Assay: Protein binding in Sprague-Dawley rat plasma at 2 uM after 4 hrs by LC-MS/MS analysis
Type: ADME, cell-free
Settings: read-out: PPB (converted)
reported property: fraction unbound at 4 h, 2 µM

smiles_str=CC(C)(C)c1[nH]cnc1/C=c1\[nH]c(=O)/c(=C/c2ccccc2)[nH]c1=O value_measured=0.039
smiles_str=[2H]/C(c1nc[nH]c1C(C)(C)C)=c1/[nH]c(=O)/c(=C/c2ccccc2)[nH]c1=O value_measured=0.042

====

Test: Stability in rat plasma at 1 uM after 20 mins by LC-MS/MS analysis
Type: ADME, cell-free
Conditions: read-out: Stability
reported property: remaining at 20 min, 1 µM

smiles_str=[2H]/C(c1nc[nH]c1C(C)(C)C)=c1/[nH]c(=O)/c(=C/c2ccccc2)[nH]c1=O value_measured=95.8%
smiles_str=CC(C)(C)c1[nH]cnc1/C=c1\[nH]c(=O)/c(=C/c2ccccc2)[nH]c1=O value_measured=98.2%
